Biological target: thrombin receptor (PAR-1) (Homo sapiens)
Construct: CHRF membranes (Jones, Biochim. Biophys. Acta 1992, 1136, 272) are thawed from −70° C; endogenous in cells; host or cells: CHRF cell membranes
Sequence (P25116 22-425): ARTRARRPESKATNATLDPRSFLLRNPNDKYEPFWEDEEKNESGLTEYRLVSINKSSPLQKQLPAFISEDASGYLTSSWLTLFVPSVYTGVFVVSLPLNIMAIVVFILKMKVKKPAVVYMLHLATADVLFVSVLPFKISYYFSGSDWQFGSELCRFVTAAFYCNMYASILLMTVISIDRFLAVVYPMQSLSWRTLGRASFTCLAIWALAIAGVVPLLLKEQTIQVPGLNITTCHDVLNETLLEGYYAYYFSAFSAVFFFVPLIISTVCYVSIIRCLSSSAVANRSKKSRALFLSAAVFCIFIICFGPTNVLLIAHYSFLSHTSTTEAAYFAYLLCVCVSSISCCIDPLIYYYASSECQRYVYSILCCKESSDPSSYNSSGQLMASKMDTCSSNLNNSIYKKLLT
Test: In vitro thrombin receptor binding assay (CHRF membranes)
Details: tritiated 721-40 radioligand, read-out: Bndg IC50 (Thrombin receptor binding)
property.name: IC50
I'd appreciate it if you wrote the number followed by its unit.

molecule | reading
NCCC[C@H](NC(=O)[C@H](Cc1ccc(F)c(F)c1)NC(=O)Nc1ccc2c(CN3CCCC3)cn(Cc3c(Cl)cccc3Cl)c2c1)C(=O)NCCc1ccncc1 [Compound 109] | 0.61 µM

// for each molecule below, give its IC50
1. COc1ccc(C[C@H](NC(=O)Nc2ccc3c(CN4CCCC4)cn(Cc4cccc(OC)c4)c3c2)C(=O)N[C@@H](CCCNC(=N)N)C(=O)NCc2ccccc2)cc1 [Compound 16]
2. NC(N)=NCCC[C@H](NC(=O)[C@H](CCc1ccccc1)NC(=O)Nc1ccc2c(CN3CCCC3)cn(Cc3ccc(F)cc3)c2c1)C(=O)NCc1ccccc1 [Compound 27]
3. Cc1ccccc1Cn1cc(CN2CCCC2)c2ccc(NC(=O)N[C@@H](Cc3cccc(C(F)(F)F)c3)C(=O)N[C@@H](CCCNC(=N)N)C(=O)NCc3ccccc3)cc21 [Compound 54]
4. N=C(N)NCCC[C@H](NC(=O)[C@H](Cc1ccc(F)c(F)c1)NC(=O)Nc1ccc2c(CN3CCCC3)cn(CC3CCCCC3)c2c1)C(=O)NCc1ccccc1 [Compound 74]
5. NCCC[C@H](NC(=O)[C@H](Cc1ccc(F)c(F)c1)NC(=O)Nc1ccc2c(CN3CCCC3)cn(Cc3c(Cl)cccc3Cl)c2c1)C(=O)N1CCCCC1 [Compound 115]
6. CN(Cc1cn(Cc2c(Cl)cccc2Cl)c2cc(NC(=O)N[C@@H](Cc3ccc(Cl)cc3)C(=O)N[C@@H](CCCN)C(=O)NC3Cc4ccccc4C3)ccc12)CC1OCCO1 [Compound 122]
7. Cc1ccccc1Cn1cc(CN2CCC(N(C)C)C2)c2ccc(NC(=O)N[C@H](Cc3ccc(F)c(F)c3)C(=O)N[C@@H](CCCN=C(N)N)C(=O)NCc3ccccc3)cc21 (some centres unmarked) [Compound 90]

Solution:
1: 11.5 µM; 2: 14.6 µM; 3: 16 µM; 4: 0.56 µM; 5: 0.37 µM; 6: 10.5 µM; 7: 15.8 µM

// for each molecule below, give its IC50
1. NCCNC(=O)[C@H](Cc1cccc(F)c1)NC(=O)[C@H](Cc1ccc(F)c(F)c1)NC(=O)Nc1ccc2c(CN3CCCC3)cn(Cc3c(Cl)cccc3Cl)c2c1 [Compound 138]
2. CN(C)CCC[C@H](NC(=O)[C@H](Cc1ccc(F)c(F)c1)NC(=O)Nc1ccc2c(CN3CCCC3)cn(Cc3c(Cl)cccc3Cl)c2c1)C(=O)NCc1ccccc1 [Compound 100]
3. Cc1ccccc1Cn1cc(CN2CCCC2)c2cccc(NC(=O)N[C@@H](Cc3ccc(F)c(F)c3)C(=O)N[C@@H](CCN)C(=O)NCc3ccccc3)c21 [Compound 168]

Solution:
1. 2 µM
2. 1.3 µM
3. 64.3 µM
